Assay: yeast display, Sf9 membrane polyspecificity reagent, FACS + sequencing; frameworks hold sequencing errors
PROPERTY_LABEL: polyreactivity (PSR sort gate)

Completed entries (count: 5):
>  <CHAIN>
QVQLVESGGGLVQAGGSLRLSSAASARIFGYYVMGWYRQAPGKERELVARIRSGGNTYYADSVKGRFTISRDNAKNTVYLQMNSLKPEDTAVYSCNADPRTGWYIYDYWGQGTQVTVSS

>  <PROPERTY_LABEL>
polyreactivity (PSR sort gate)

>  <READOUT_VALUE>
high polyreactivity

$$$$
>  <CHAIN>
QVQLVESGGGLVQAGGSLRLICAASGRTFPYNAMGWYRQAPGKERELVAAISSGTRTDYADSVKGRFTISRDNAKNTVYLQMNSLKPEDTAVYYCAADYYHYLWRAYGFDYWGQGTQVTVSS

>  <PROPERTY_LABEL>
polyreactivity (PSR sort gate)

>  <READOUT_VALUE>
high polyreactivity

$$$$
>  <CHAIN>
QVQLVESGGGLVQAGGSLRLSCAASGSTFRQYAMGWYRQAPGKERELVAAISTNGVSTRYADSVKGRFTISRDNAKNTVYLQMNSLKPEDTAVYSCAAGYRKSYTYYRYDYWGQGTQVTVSS

>  <PROPERTY_LABEL>
polyreactivity (PSR sort gate)

>  <READOUT_VALUE>
high polyreactivity

$$$$
>  <CHAIN>
QVQLVESGGGLVQAGGSLRLSCAASGSIFLRYGMGWYRQAPGKERELVAAISRGGGSTYYADSVKGRFTISRDNAKNTVYLQMNSLKPEDTAVYYCNKASYRYSSDYDYWGQGTQVTVSS

>  <PROPERTY_LABEL>
polyreactivity (PSR sort gate)

>  <READOUT_VALUE>
high polyreactivity

$$$$
>  <CHAIN>
QVQLVESGGGLVQAGGSLRLSCAASGFTLYRYVMGWYRQAPGKERELVAAITWSGGSTYYADSVKGRFTISRDNAKNTVYLQMNSLKPEDTAVYYCAARLNVRGWGQGTQVTVSS

>  <PROPERTY_LABEL>
polyreactivity (PSR sort gate)

>  <READOUT_VALUE>
low polyreactivity

$$$$

Prompt: Return reported polyreactivity (PSR sort gate). Input sequence: `QVQLVESGGGLVQAGGSLRLSCAASGRIFRSYAMGWSIQAPGKERELVAAITSGGSTNYADSVKGRFTISRDNAKNTVYLQMNSLKPEDTAVYYCAARWPWYGKLRYYYWGQGTQVTVSS`
Response: high polyreactivity

Prompt: Return reported polyreactivity (PSR sort gate). Input sequence: `QVQLVESGGGLVQAGGSLRLSCAASGSIFPPNAMGWYRQAPGKEREFVATITGRGGRTYYADSVKGRFTISRDNAKNTVYLQMNSLKPEDTAVYYCAARYTTSSRAKIEYDYWGQGTQVTVSS`
Response: high polyreactivity

Prompt: Return reported polyreactivity (PSR sort gate). Input sequence: `QVQLVESGGGLVQAGGSLSLSCAASGNIFTIYAMGWYRKAPGKERELVARITWGGGNTYYADSVKGRFTISRDNAKNTVYLQMNSLKPEDSAVYYCNAVGPYDYRYGKYDYWGLGTQVTVSS`
Response: low polyreactivity

Prompt: Return reported polyreactivity (PSR sort gate). Input sequence: `QVQLVESGGGLVQAGGSLRLSCAASGRTFFRYVMGWYRQAPGKERELVAAISTRGGSTYYADSVKGRFTISRDNAKNTVYLQMNSLKPEDTAVYYCAARFKVRDYSYNYWGQGTQVTVSS`
Response: high polyreactivity

Prompt: Return reported polyreactivity (PSR sort gate). Input sequence: `QVQLVESGGGLVQAGGSLRLSCAASGSIFTEYAMGWYRQAPGKERELVADINSGDITYYADSVKGRFTISRDNAKNTVYLQMNSLKPEDTAVYYCATGWYYTSSTYRSSDFDYWGQGTQVTVSS`
Response: low polyreactivity

Prompt: Return reported polyreactivity (PSR sort gate). Input sequence: `QVQLVESGGGLVHAGGSLLLSCAASRFIFASNAMGWYRKAPAKERELVAAISSSGGRTYYADSVKGRFTISRDNAKNSVYLQMNSLKPEDTAVYYCAADWLVTYDYWGQGTQVTVSS`
Response: high polyreactivity
